Kindly supply the reported activation values for the records listed here.
test: qHTS for Inducers of the Endoplasmic Reticulum Stress Response (ERSR) in Human Glioma: qHTS; conditions: U87-MG GRP78 promoter luciferase reporter, 16 h; active compounds read high; note: % of control where 0% means no effect; nearly all actives have a fitted effect of over 35% in size
Out of some 420,000 compounds screened, about 75 (0.02%) were called active. The full list was thinned out, with actives kept by preference.
Numbers only, in %.

Completed entries (count: 8):
{"compound": "COc1ccccc1C(=O)N[C@@H]1c2ccccc2C2(CCN(C(=O)c3csnn3)CC2)[C@H]1OC", "measure-unit": "%", "measurement": 0.874}
{"compound": "CC(=O)Nc1ccccc1-c1nc(CNC(=O)c2ccc(Cl)cc2)c(C)o1", "measure-unit": "%", "measurement": -2.78}
{"compound": "Cc1ccc(Cn2cnc3c(cnn3C(C)(C)C)c2=O)c(F)c1", "measure-unit": "%", "measurement": -6.82}
{"compound": "COC(=O)C(C(=O)OC)[C@@H]1CCCC(=O)C1", "measure-unit": "%", "measurement": -5.46}
{"compound": "Cc1cc(C(=O)NCC2Cc3cccc(-c4cncnc4)c3O2)c(C)o1 (stereo not given)", "measure-unit": "%", "measurement": -0.609}
{"compound": "COCc1c(C(=O)NC2CCCCC2)cnn1-c1nccc(-c2ccccc2OC)n1", "measure-unit": "%", "measurement": 0.854}
{"compound": "CN(C)c1ccc(CN2CCOc3ccc(CN4CCC(O)(c5cccnc5)CC4)cc3C2)cc1", "measure-unit": "%", "measurement": -1.82}
{"compound": "COc1ccccc1C1CN(CCNC(=O)C2=CCCC2)Cc2ccccc2O1 (stereo not given)", "measure-unit": "%", "measurement": -2}

Report activation for each item below.
1. O=C1CCN(Cc2ccc(-c3ccccc3)cc2)CCN1Cc1ccccn1
2. CO[C@H]1COC(=O)[C@H](Cc2ccccc2)NC(=O)C/C=C\[C@@H](C)[C@H](OC)COC(=O)C/C=C\[C@@H]1C
3. CO/N=C(\C(=O)N[C@@H]1C(=O)N2C(C(=O)O)=C(Cn3nnc(C)n3)CS[C@H]12)c1csc(N)n1

Data returned:
2.1
-4.82
-1.86

Report activation for each item below.
1. COc1cc(=O)n2c(c1C(=O)N(C)Cc1nccs1)CCN(Cc1ccc(Cl)cc1)CC2
2. Cc1cnc(C)c(-c2cc(F)c3c(c2)CC(CNC(=O)c2cccc(Cn4cccn4)c2)O3)n1 (stereo not given)
3. OCC1CCCN(c2nc3cc4c(cc3cc2CNCc2cccs2)OCO4)C1 (stereo not given)
4. Cc1ncc2c(c1CNS(=O)(=O)N(C)C)CCN(C(=O)c1ccccc1F)C2
5. C[C@@H](c1ccccc1)N1C(=O)[C@H]2[C@H]3[C@H](O)[C@H](O)C/C(=N/OC[C@@H](O)COCc4ccco4)[C@@H]3CC[C@@H]2C1=O

Data returned:
-5.15
-2.2
-3.02
-3.66
-4.31
